Biological target: PDE4B (human recombinant) (Homo sapiens)
Construct: made in house
Sequence (Q07343 1-564 isoform Q07343-2): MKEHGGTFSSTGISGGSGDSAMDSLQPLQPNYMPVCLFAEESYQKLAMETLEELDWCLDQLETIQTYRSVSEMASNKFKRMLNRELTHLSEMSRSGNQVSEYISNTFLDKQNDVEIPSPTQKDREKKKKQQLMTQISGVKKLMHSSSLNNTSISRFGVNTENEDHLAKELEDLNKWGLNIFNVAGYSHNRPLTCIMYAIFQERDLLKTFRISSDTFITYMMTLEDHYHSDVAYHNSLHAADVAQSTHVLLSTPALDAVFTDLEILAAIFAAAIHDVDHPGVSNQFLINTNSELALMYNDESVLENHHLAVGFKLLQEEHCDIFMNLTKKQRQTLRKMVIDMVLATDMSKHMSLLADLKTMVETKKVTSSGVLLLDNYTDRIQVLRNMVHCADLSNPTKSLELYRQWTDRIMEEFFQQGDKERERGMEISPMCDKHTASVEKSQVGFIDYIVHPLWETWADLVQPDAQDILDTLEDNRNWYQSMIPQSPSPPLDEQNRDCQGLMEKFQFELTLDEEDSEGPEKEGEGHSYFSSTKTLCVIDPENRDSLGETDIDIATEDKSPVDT
Assay: Inhibition of PDE4B activity: SPA and/or Fluorescence Polarisation (FP) assay
Format: biochemical
Details: one reading (n=1) or average of 2 or more readings, read-out: PDE4B pIC50 (±about 0.5) (converted)
Protocol: The ability of compounds to inhibit catalytic activity at PDE4B or 4D (human recombinant), PDE3 (from bovine aorta), PDE5 (human recombinant) or PDE6 (from bovine retina) can optionally be determined by Scintillation Proximity Assay (SPA) in a 96-well format. The enzyme concentration is adjusted so that no more than 20% hydrolysis of the substrate defined below occurs in control wells without compound, during the incubation. […] Results are expressed as pIC50 values. […]
Where a name gives a salt, the structure may show the parent alone.
measured-attribute: IC50

1. CCn1ncc2c(NC3CCOCC3)c(CNC(=O)c3ccc(F)cc3F)c(C)nc21 ... 0.126 to 1 nM
2. CCc1nc2c(cnn2CC)c(NC2CCOCC2)c1CNC(=O)c1ccc(N2CCCCC2)cc1 ... 0.01 to 0.1 nM
3. CCc1nc2c(cnn2CC)c(NC2CCOCC2)c1CNC(=O)c1ccc(NC(C)=O)c2c1OCC2 ... 0.01 to 0.1 nM
4. CCc1nc2c(cnn2CC)c(NC2CCOCC2)c1CNC(=O)c1ccc(N2CCOCC2)cc1 ... 0.01 to 0.1 nM
5. CCn1ncc2c(NC3CCN(C(N)=O)CC3)c(CNC(=O)c3ccc(C)cc3O)c(C)nc21 ... 0.01 to 0.1 nM
6. CCc1nc2c(cnn2CC)c(NC2CCOCC2)c1CNC(=O)c1cncs1 ... 0.126 to 1 nM
7. CCc1nc2c(cnn2CC)c(NC2CCN(C(N)=O)CC2)c1CNC(=O)c1ccc(N2CCCCC2)cc1 ... 0.01 to 0.1 nM
8. CCn1ncc2c(NC3CCOCC3)c(CN3Cc4ccc(F)cc4C3=O)c(C)nc21 ... 0.126 to 1 nM
9. CCn1ncc2c(NC3CCOCC3)c(CNC(=O)c3ccc(C(F)(F)F)o3)c(C)nc21 ... 0.126 to 1 nM
10. CCc1nc2c(cnn2CC)c(NC2CCOCC2)c1CNC(=O)c1ccc(N2CCCCCCC2)cc1 ... 0.126 to 1 nM
11. CCc1nc2c(cnn2CC)c(NC2CCN(C(N)=O)CC2)c1CNC(=O)c1ccc(C(C)(C)C)cc1O [Example 302, Formate] ... 0.01 to 0.1 nM
12. CCc1nc2c(cnn2CC)c(NC2CCN(C(N)=O)CC2)c1CNC(=O)c1cccc(N2CCCC2=O)c1 ... 0.01 to 0.1 nM
13. CCc1nc2c(cnn2CC)c(NC2CCOCC2)c1CNC(=O)c1ccc(C(C)(C)C)cc1O ... 0.01 to 0.1 nM
14. CCn1ncc2c(NC3CCN(C(N)=O)CC3)c(CNC(=O)c3cccc(NC(C)=O)c3)c(C)nc21 ... 0.01 to 0.1 nM
15. CCc1nc2c(cnn2CC)c(NC2CCN(C(N)=O)CC2)c1CNC(=O)c1ccc2c(c1)CCC2 ... 0.126 to 1 nM
16. CCn1ncc2c(NC3CCOCC3)c(CNC(=O)c3ccc(C)nc3)c(C)nc21 ... 0.126 to 1 nM
17. CCc1nc2c(cnn2CC)c(NC2CCOCC2)c1CNC(=O)C1CCCO1 (stereo not drawn) ... 0.126 to 1 nM
18. CCc1nc2c(cnn2CC)c(NC2CCN(C(N)=O)CC2)c1CNC(=O)c1ccc(N2CCCC2=O)cc1 ... 0.01 to 0.1 nM
19. CCn1ncc2c(NC3CCOCC3)c(CNC(=O)c3ccccc3F)c(C)nc21 ... 0.126 to 1 nM
20. CCc1nc2c(cnn2CC)c(NC2CCOCC2)c1CNC(=O)c1ccccc1F ... 0.01 to 0.1 nM
21. CCn1ncc2c(NC3CCOCC3)c(CNC(=O)c3ccsc3)c(C)nc21 ... 0.126 to 1 nM
22. CCn1ncc2c(NC3CCOCC3)c(CNC(=O)c3cnc(C(C)C)nc3)c(C)nc21 ... 0.126 to 1 nM
23. CCc1nc2c(cnn2CC)c(NC2CCN(C(N)=O)CC2)c1CNC(=O)c1ccc(C(C)(C)C)cc1 ... 0.01 to 0.1 nM
24. CCn1ncc2c(NC3CCOCC3)c(CNC(=O)c3cncs3)c(C)nc21 ... 0.126 to 1 nM
25. CCc1nc2c(cnn2CC)c(NC2CCN(C(N)=O)CC2)c1CNC(=O)c1ccc(C(C)C)cc1 ... 0.01 to 0.1 nM
26. CCc1nc2c(cnn2CC)c(NC2CCOCC2)c1CNC(=O)c1cccc(NC(C)=O)c1 ... 0.01 to 0.1 nM
27. CCc1nc2c(cnn2CC)c(NC2CCOCC2)c1CNC(=O)c1ccn(C)n1 ... 0.126 to 1 nM
28. CCc1nc2c(cnn2CC)c(NC2CCOCC2)c1CNC(=O)c1nc2ccc(Cl)cc2nc1OC ... 0.01 to 0.1 nM
29. CCn1ncc2c(NC3CCOCC3)c(CNC(=O)c3csc(C(F)(F)F)n3)c(C)nc21 ... 0.126 to 1 nM
30. CCn1ncc2c(NC3CCN(C(N)=O)CC3)c(CNC(=O)c3ccc4c(c3)CCC4)c(C)nc21 ... 0.01 to 0.1 nM
31. CCc1nc2c(cnn2CC)c(NC2CCOCC2)c1CNC(=O)C1CCN(S(C)(=O)=O)CC1 ... 0.126 to 1 nM
32. CCc1nc2c(cnn2CC)c(NC2CCOCC2)c1CNC(=O)c1cccc(N2CCOCC2)c1 ... 0.01 to 0.1 nM
33. CCc1nc2c(cnn2CC)c(NC2CCOCC2)c1CNC(=O)c1ccsc1 ... 0.01 to 0.1 nM
